Ref: patent US8629164B2

Target: p52 (Homo sapiens)
Sequence (Q00653 1-454 limits assumed): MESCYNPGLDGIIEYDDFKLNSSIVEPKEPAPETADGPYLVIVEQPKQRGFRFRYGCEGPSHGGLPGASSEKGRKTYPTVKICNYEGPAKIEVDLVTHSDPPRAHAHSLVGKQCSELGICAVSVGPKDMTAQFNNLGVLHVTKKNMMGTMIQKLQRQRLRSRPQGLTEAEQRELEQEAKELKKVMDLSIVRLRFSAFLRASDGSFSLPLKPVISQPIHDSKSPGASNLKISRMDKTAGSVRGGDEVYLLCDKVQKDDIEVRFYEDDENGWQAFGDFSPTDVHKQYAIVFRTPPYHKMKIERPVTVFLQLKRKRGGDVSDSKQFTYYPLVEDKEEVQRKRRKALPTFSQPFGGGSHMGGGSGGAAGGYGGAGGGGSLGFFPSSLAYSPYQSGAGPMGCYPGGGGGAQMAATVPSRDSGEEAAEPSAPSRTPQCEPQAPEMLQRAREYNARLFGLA
Experiment: TransAM NF-κB Family DNA Binding ELISA, p52
Conditions: read-out: p52 binding % inhibit. at 5 uM, at 5 uM
Listed next: entries and their corresponding inhibition at 5 µM.
OBSERVED_PROPERTY: inhibition at 5 µM (%)

MOLECULE	TARGET_DESC	OBSERVED_PROPERTY	MEASUREMENT
O=C(NC1=CC(=O)C2OC2C1O)c1nc2ccccc2cc1O (racemic)	p52 (Homo sapiens)	inhibition at 5 µM	0
O=C(NC1=CC(=O)C2OC2C1O)c1cnc(N2CCCCC2)nc1O (racemic)	p52 (Homo sapiens)	inhibition at 5 µM	9
O=C(NC1=CC(=O)C2OC2C1O)c1cnc(-c2ccccc2)nc1O (racemic)	p52 (Homo sapiens)	inhibition at 5 µM	17
Cc1ccc(C(=O)NC2=CC(=O)C3OC3C2O)c(O)n1 (racemic)	p52 (Homo sapiens)	inhibition at 5 µM	11
COc1cccnc1C(=O)NC1=CC(=O)C2OC2C1O (racemic)	p52 (Homo sapiens)	inhibition at 5 µM	18
O=C(NC1=CC(=O)C2OC2C1O)c1cnc2c(C(F)(F)F)cccc2c1O (racemic)	p52 (Homo sapiens)	inhibition at 5 µM	7
O=C(NC1=CC(=O)C2OC2C1O)c1nc2ccccc2nc1O (racemic)	p52 (Homo sapiens)	inhibition at 5 µM	22
O=C(NC1=CC(=O)C2OC2C1O)c1cc(Cl)cnc1O (racemic)	p52 (Homo sapiens)	inhibition at 5 µM	16
